- subject of test: Progesterone receptor (Homo sapiens, UniProt P06401)
- Sequence (P06401 whole entry): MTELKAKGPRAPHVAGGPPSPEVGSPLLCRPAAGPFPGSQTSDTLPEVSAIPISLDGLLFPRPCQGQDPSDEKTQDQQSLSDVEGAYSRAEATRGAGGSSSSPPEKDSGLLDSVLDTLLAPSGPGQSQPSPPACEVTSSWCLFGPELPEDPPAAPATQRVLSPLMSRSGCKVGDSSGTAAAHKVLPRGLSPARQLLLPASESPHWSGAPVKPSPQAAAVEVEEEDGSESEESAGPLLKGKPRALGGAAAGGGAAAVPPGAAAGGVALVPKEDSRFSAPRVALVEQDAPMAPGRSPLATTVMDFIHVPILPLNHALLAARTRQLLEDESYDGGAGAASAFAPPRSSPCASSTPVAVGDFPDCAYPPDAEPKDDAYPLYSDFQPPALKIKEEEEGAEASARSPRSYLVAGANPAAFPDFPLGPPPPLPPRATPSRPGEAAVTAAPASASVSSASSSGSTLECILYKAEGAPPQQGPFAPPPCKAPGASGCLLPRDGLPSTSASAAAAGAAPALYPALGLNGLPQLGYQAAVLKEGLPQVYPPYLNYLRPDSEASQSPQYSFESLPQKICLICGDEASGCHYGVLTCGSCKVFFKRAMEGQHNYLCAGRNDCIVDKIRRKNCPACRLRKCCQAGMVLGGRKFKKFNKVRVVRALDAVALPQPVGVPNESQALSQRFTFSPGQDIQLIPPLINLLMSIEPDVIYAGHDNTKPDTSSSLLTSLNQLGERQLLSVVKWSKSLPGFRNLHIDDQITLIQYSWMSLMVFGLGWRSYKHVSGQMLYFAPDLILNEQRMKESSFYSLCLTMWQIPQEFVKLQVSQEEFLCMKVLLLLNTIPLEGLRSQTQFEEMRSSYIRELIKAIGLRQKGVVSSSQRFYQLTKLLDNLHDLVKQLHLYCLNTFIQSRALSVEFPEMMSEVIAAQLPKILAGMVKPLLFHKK
- measurement notes: Effective concentration on alkaline phosphatase activity in human T47D breast carcinoma cell line.
- Assay type: functional, cell-based
value kind: EC50 (nM)

CC1(Cc2ccccc2)OC(=S)Nc2ccc(-c3cccc(Cl)c3)cc21 (centres undefined)	88.5

P. CC1(C)OC(=S)Nc2ccc(-c3cncc(Br)c3)cc21
Q. CC1(C)OC(=S)Nc2ccc(-c3csc(C#N)c3)cc21
When the recorded EC50 values are compared, which is smaller: that of P or that of Q ? State the label of the item chosen. Q

---

- subject of test: Progesterone receptor (Homo sapiens, UniProt P06401)
- measurement notes: Effective concentration on alkaline phosphatase activity in human T47D breast carcinoma cell line.
- Type: functional, cell-based
pEC50: −log10 of the molar value.
value kind: pEC50

Please review the entries below; each comes with its answer.
CC1(C)OC(=S)Nc2ccc(-c3cc(F)cc(F)c3)cc21	8.82
N#Cc1cccc(-c2ccc3c(c2)C2(CCCCC2)OC(=S)N3)c1	8.60

P. COc1cccc(-c2ccc3c(c2)C(C)(C)OC(=S)N3)c1
Q. CC1(C)OC(=S)Nc2ccc(-c3ccc(F)c(Cl)c3)cc21
Returns: the label, P or Q , whose recorded pEC50 is the lower number. Response format: the label of the selected entry. Q

I. CC1(C)OC(S)=Nc2ccc(-c3cc(C#N)cc(C#N)c3)cc21
II. CC1(C)OC(=S)Nc2ccc(-c3cccc(F)c3)cc21
Looking at recorded values for pEC50, does I or II come in lower? // output: label of the selected item I
(I: 7.38, II: 9.00)

---

- subject of test: Progesterone receptor (Homo sapiens, UniProt P06401)
- measurement notes: Effective concentration on alkaline phosphatase activity in human T47D breast carcinoma cell line.
- Assay type: functional, cell-based
The entries below are paired with their reported EC50.

Cc1cc(Br)cc(-c2ccc3c(c2)C(C)(C)OC(=S)N3)c1	> 10 µM

Next compound, please.
For the compound shown here, CC1(C)OC(S)=Nc2c(Br)cc(-c3ccc(C#N)c(F)c3)cc21 , give the reported EC50. > 10 µM

---

// values below are reported EC50
- subject of test: Progesterone receptor (Homo sapiens)
- measurement notes: Effective concentration on alkaline phosphatase activity in human T47D breast carcinoma cell line.
- Assay type: functional, cell-based

Check out these entries, answers already filled in.
CC1(C)OC(=S)Nc2ccc(-c3cc(Br)cc(OC(F)(F)F)c3)cc21	> 10 µM
CC1(C)OC(S)=Nc2ccc(-c3cc(C#N)cc(OC(F)(F)F)c3)cc21	> 10 µM

Bench note: what EC50 did CN1C(=S)OC(C)(C)c2cc(-c3cccc(Br)c3)ccc21 show? > 10 µM
